Known activity, negative = cell killing of a selection of compounds
# protocol.description: Drug repurposing screens with cells derived from glioblastoma tumor samples (AID 1345199); further: on the % scale 0 is the no-effect control and ±100 the full control effect; nearly all actives have a fitted effect of over 40% in size
# cond: GBM patient neurospheres viability, ATP luminescence, 48 h; at 21.2 µM (top of the series); tumour line B
Inconclusive results are not listed.

- compound: "C[C@@H](O)[C@H]1C(=O)N2C(C(=O)O)=C(SCCN=CN)C[C@H]12"
  activity, negative = cell killing (%): -16.2
- compound: "CC(=O)OC(C)C[N+](C)(C)C (stereo not given)"
  activity, negative = cell killing (%): 6.44
- compound: "CCO/C([O-])=N/c1c[n+](N2CCOCC2)no1"
  activity, negative = cell killing (%): -3.07
- compound: "CCN(CC)CCNC(=O)c1cc(S(C)(=O)=O)ccc1OC"
  activity, negative = cell killing (%): -7.73
- compound: "CC[N+](C)(C)c1cccc(O)c1"
  activity, negative = cell killing (%): -16.9
- compound: "CCc1c(C)[nH]c2c1C(=O)C(CN1CCOCC1)CC2 (stereo not given)"
  activity, negative = cell killing (%): -15.8
- compound: "CN1CCN(C2=Nc3ccccc3Oc3ccc(Cl)cc32)CC1"
  activity, negative = cell killing (%): -17.3
- compound: "CN(C)CCOC(=O)COc1ccc(Cl)cc1"
  activity, negative = cell killing (%): -11.3
- compound: "CC(C)(Oc1ccc(CCNC(=O)c2ccc(Cl)cc2)cc1)C(=O)O"
  activity, negative = cell killing (%): -6.51
- compound: "C(=C\\c1ccccc1)/CN1CCN(C(c2ccccc2)c2ccccc2)CC1"
  activity, negative = cell killing (%): -13.5

###

# Test system: GB4
# protocol.description: qHTS profiling for inhibitors of Plasmodium falciparum proliferation (AID 504749); further: nearly all actives have a fitted effect of over 60% in size
# cond: P. falciparum in erythrocytes, SYBR Green DNA, 72 h; series mostly up to 28.7 µM
Results filed as inconclusive are left out. The source made the active and inactive calls. Calls follow the shape of the dose curve; as a rule, active = well fitted inhibition curve with a large enough effect; inconclusive = small, poorly fitted or top-dose-only effect; inactive = flat fitted curve, though single readings scatter.
Outcomes: active, inactive

- structure.string: "COCC(=O)O[C@]1(CCN(C)CCCc2nc3ccccc3[nH]2)CCc2cc(F)ccc2[C@@H]1C(C)C"
  class.name: "active"
- structure.string: "NC(=O)N1c2ccccc2C=Cc2ccccc21"
  class.name: "inactive"
- structure.string: "C[C@H](CS)C(=O)N1CCC[C@H]1C(=O)O"
  class.name: "inactive"

###

# Tested on: CP315
# protocol.description: qHTS profiling for inhibitors of Plasmodium falciparum proliferation (AID 504749); further: nearly all actives have a fitted effect of over 60% in size
# cond: P. falciparum in erythrocytes, SYBR Green DNA, 72 h; series mostly up to 28.7 µM
Records with an inconclusive call do not appear. Active and inactive are the calls of the source. Calls follow the shape of the dose curve; as a rule, active = well fitted inhibition curve with a large enough effect; inconclusive = small, poorly fitted or top-dose-only effect; inactive = flat fitted curve, though single readings scatter.
Outcome codes: active, inactive

- compound: "CN1CCN(CC(=O)N2c3ccccc3C(=O)Nc3cccnc32)CC1"
  class.name: "inactive"
- compound: "c1cnc(N2CCN(Cc3ccc4c(c3)OCO4)CC2)nc1"
  class.name: "inactive"
- compound: "COc1ccc([C@@H]2Sc3ccccc3N(CCN(C)C)C(=O)[C@@H]2OC(C)=O)cc1"
  class.name: "inactive"
- compound: "CN(C(=O)CCCOc1ccc2[nH]c(=O)ccc2c1)C1CCCCC1"
  class.name: "inactive"
- compound: "CCn1ccnc1CC1COc2ccccc2O1 (stereo unspecified)"
  class.name: "inactive"
- compound: "CCOC(=O)c1cnc2c(cnn2CC)c1NN=C(C)C"
  class.name: "inactive"
- compound: "Cc1cc(C)c(/C=C2\\C(=O)Nc3ccccc32)[nH]1"
  class.name: "inactive"
- compound: "Nc1c2c(nc3ccccc13)CCCC2O (stereo unspecified)"
  class.name: "inactive"
- compound: "CC(N=C(NC#N)Nc1ccncc1)C(C)(C)C (stereo unspecified)"
  class.name: "inactive"
- compound: "NC(Cc1ccc(Cl)cc1)C(=O)O (stereo unspecified)"
  class.name: "inactive"
- compound: "C[N+](C)(C)CCOC(N)=O"
  class.name: "inactive"
- compound: "Cc1nc2ccccn2c(=O)c1CCN1CCC(C(=O)c2ccc(F)cc2)CC1"
  class.name: "inactive"
- compound: "CN(C)C(=O)Oc1ccc[n+](C)c1"
  class.name: "inactive"
- compound: "C[N+](C)(C)CCOC(=O)CCC(=O)OCC[N+](C)(C)C"
  class.name: "inactive"
- compound: "CCCN(CCC)CCc1cccc2c1CC(=O)N2"
  class.name: "inactive"
- compound: "CN(C)CCCN1c2ccccc2Sc2ccc(C(F)(F)F)cc21"
  class.name: "inactive"
- compound: "CN(C)CCN(Cc1cccs1)c1ccccn1"
  class.name: "inactive"
- compound: "COC(=O)[C@@H](N)Cc1ccc(O)c(O)c1"
  class.name: "inactive"
- compound: "Cc1nc2c([nH]1)c(=O)n(C)c(=O)n2Cc1ccco1"
  class.name: "inactive"
- compound: "O=C(O)CCCCCCCC(=O)O"
  class.name: "inactive"
- compound: "Brc1c(NC2=NCCN2)ccc2nccnc12"
  class.name: "inactive"
- compound: "C[C@H](CS)C(=O)N1CCC[C@H]1C(=O)O"
  class.name: "inactive"
- compound: "Cc1ccc(=O)n(-c2ccccc2)c1"
  class.name: "inactive"
- compound: "Nc1ncn([C@@H]2O[C@H](CO)[C@@H](O)[C@H]2O)c(=O)n1"
  class.name: "inactive"
- compound: "CCN(CC)CCOCCOC(=O)C1(c2ccccc2)CCCC1"
  class.name: "inactive"
- compound: "C[N+](C)(C)CCCCCCCCCC[N+](C)(C)C"
  class.name: "active"
